target: IDO (Homo sapiens, UniProt P14902); experiment: LLE_IDO_ABS_DR (IDO assay)
Sequence (P14902 whole entry): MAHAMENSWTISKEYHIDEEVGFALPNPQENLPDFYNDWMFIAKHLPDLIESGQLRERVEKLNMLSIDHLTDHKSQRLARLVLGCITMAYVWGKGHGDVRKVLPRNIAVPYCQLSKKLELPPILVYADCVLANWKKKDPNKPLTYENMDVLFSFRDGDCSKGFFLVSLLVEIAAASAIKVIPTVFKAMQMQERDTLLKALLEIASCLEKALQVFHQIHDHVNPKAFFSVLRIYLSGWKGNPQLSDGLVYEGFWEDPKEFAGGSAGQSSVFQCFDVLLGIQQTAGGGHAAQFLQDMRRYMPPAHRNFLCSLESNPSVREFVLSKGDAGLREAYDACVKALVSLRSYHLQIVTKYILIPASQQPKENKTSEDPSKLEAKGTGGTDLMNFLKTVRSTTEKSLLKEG
Assay endpoint: IC50 (nM)

Molecule | System | Assay endpoint | Val
Cc1ccc(NC(=O)Nc2cc(-c3ccccc3-c3nnn[nH]3)ccc2N(C)C2CCC(F)(F)CC2)cc1 [Example 106] | IDO (Homo sapiens, UniProt P14902) | IC50 | 8.81
CC(C)CN(c1ccc(-c2ccccc2C(=O)O)cc1NC(=O)Nc1ccc(OC(F)(F)F)cc1)C1CCC(F)(F)CC1 [Example 511] | IDO (Homo sapiens, UniProt P14902) | IC50 | 8.1

(I) Cc1ccc(NC(=O)Nc2cc(-c3ccccc3-c3nnn[nH]3)ccc2N2CCCc3ccccc32)cc1 [Example 361]
(II) C=C(C)CN(CC(F)(F)F)c1ccc(-c2ccccc2-c2nnn[nH]2)cc1NC(=O)Nc1ccc(C)cc1 [Example 472]
Looking only at measured IC50, which entry is lower, I or II ? Answer by stating the label of the chosen item.
II

====

target: Human IDO1 (Homo sapiens); test: IDO Kynurenine Assay with Human IDO1/HEK293 Cells; details: read-out: HEK human IDO-1 (IC50)
Assay endpoint: IC50 (µM)

Below: 5 compounds and their reported IC50.
Compound | System | Scale unit | IC50
Cc1cc(NC(=O)Nc2cc(-c3ccccc3-c3nnn[nH]3)ccc2N(CC(C)C)CC2CC(F)(F)C2)on1 | Human IDO1 (Homo sapiens) | µM | 0.35
Cc1ccc(NC(=O)Nc2cc(-c3ccc(Cl)cc3C(=O)O)ccc2N(CC(C)C)CC(C)C)cc1 | Human IDO1 (Homo sapiens) | µM | 0.08
C=C(C)CN(c1ccc(-c2ccccc2-c2nnn[nH]2)cc1NC(=O)Nc1ccc(C)cc1)C1CCCCC1 | Human IDO1 (Homo sapiens) | µM | 0.00111
CC(C)CN(Cc1ccccc1)c1ccc(-c2ccccc2-c2nnn[nH]2)cc1NC(=O)Nc1ccc(OC(F)(F)F)cc1 | Human IDO1 (Homo sapiens) | µM | 0.05
CC(C)CN(CC(C)C)c1ccc(-c2ccccc2-c2nnn[nH]2)cc1NC(=O)Nc1ccc(C#N)nc1 | Human IDO1 (Homo sapiens) | µM | 0.22

(1) CCOc1ccc(NC(=O)Nc2cc(-c3cc(F)ccc3C(=O)O)c(F)cc2N(CC(C)C)C2CCC(F)(F)CC2)cc1
(2) Cc1ccc(NC(=O)Nc2cc(-c3cc(F)ccc3C(=O)O)ccc2N(CC(C)C)C2CCCCC2)cn1
Return label of the item with the larger IC50. Candidates: 1 , 2 . Answer by stating the label of the chosen item.
2
(2: 0.02 µM, 1: 0.01 µM)

(P) Cc1ccc(NC(=O)Nc2cc(-c3ccccc3-c3nnn[nH]3)ccc2N(CCC(F)(F)F)Cc2cccc(Cl)c2)cc1
(Q) COCCN(c1ccc(-c2ccccc2C(=O)O)cc1NC(=O)Nc1ccc(Cl)cc1F)C1CCCCC1
(R) Cc1cc(NC(=O)Nc2cc(-c3cccc(C)c3C(=O)O)ccc2N(CC(C)C)CC(C)C)on1
(S) Cc1ccc(NC(=O)Nc2cc(-c3ccccc3-c3nnn[nH]3)ccc2N2CCCc3ccccc32)cc1
(T) Cc1cc(NC(=O)Nc2cc(-c3cc(F)ccc3C(=O)O)ccc2N(CC(C)C)C2CCCCC2)no1
Rank ascending by IC50. # output: labels, in the requested order
Q, T, P, R, S
(Q: 0.000863 µM, T: 0.01 µM, P: 0.06 µM, R: 0.14 µM, S: 0.22 µM)

Attribution: patent US9758492B2
